# TARGET UNDER TEST: T1, human Bcl-B a.a. 11-175 with C-terminal avi-6his tag (human)
# T1 construct: also called BCL2L10
# T1 chain: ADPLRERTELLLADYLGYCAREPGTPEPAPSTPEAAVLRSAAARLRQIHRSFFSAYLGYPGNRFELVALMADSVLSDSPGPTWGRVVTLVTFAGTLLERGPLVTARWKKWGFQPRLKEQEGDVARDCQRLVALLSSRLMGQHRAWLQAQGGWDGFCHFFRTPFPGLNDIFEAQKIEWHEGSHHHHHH
# ASSAY OVERVIEW: BLI, biotinylated target on streptavidin sensor, range of analyte concentrations
Please respond with reported Kd for every item in the list.
Give bare numbers, in µM.

X-CDP07 (designed binder) ADPKKVLDKAKDRAENVVRKLKKELEELYKEARKLDLTQEMRDRIRLAAIAARIAAFGDIFHAIMEALEEARKLKKAGLVNSQQLDELKRRLEELDEEAAQRAEKLGKEFELKLEY : 0.107

Field: Kd. Fill in for each record below.
1. 10-ECM01 (designed binder) ADPKKILDKAKDQVENRVRELKQELERLYKEARKLDLTQEMRRKLHVRYIAAMLKAIAAILNAIAQAENEADKLKKAGLVNSQQLDELRRRLEELTEEAAQKAHDYGREFQLKLEYG
2. W-CDP03 (designed binder) DPKKVFDEAKDRAENNVRRLKQKLEELYKEARKKDLTQEEREKLKEKYKTAMAAAALAAIGDAFNALLKARKLHKNGQVNEQQLEELARRLQELAKEAFQKAKDYANEFEYKLEY
3. MINDI (Mcl-1-inhibiting design acting intracellularly) (designed binder, also called M-CDP04; αMCL1) ADPKKVLDKAKDQAENRVRELKQVLEELYKEARKLDLTQEMRKKLIERYAAAIIRAIGDINNAIYQAKQEAEKLKKAGLVNSQQLDELLRRLDELQKEASRKANEYGREFELKLEY
4. FINDI (designed binder, also called αBFL1) ADPKKVLDKAKDQAENRVRELKQKLEELYKEARKLDLTQEKRKKLEVATLGAVLAAHGDILNAIMQAKEEADKLKKAGLVNSQQLDELKRRLEELKEEALRKASDYGNEFHLKRRY
5. F-CDP01 (designed binder) ADPKKVLDKAKDQAENRVRELKQKLEELYKEARKLDLTQEMRKKLQYAAIGAMLAAIGDILNAIMQAKQEADKLKKAGLVNSQQLDELKRRLEELKEEALRKAHDYGSEFYLKLEY
6. F-ECM04 (designed binder) ADPKKVLDKAKDQAENRVRELKQKLEELYKEARKLDLTQEMRKKLEVAALGAVLAAHGDILNAIMQAKEEADKLKKAGLVNSQQLDELKRRLEELKEEALRKASDYGKEFHLKRRYG

Result:
1: 0.077; 2: 0.4; 3: 40; 4: 31; 5: 210; 6: 4

The measured values listed here are drawn from patent US20160376333A1.
